Assignment: determine reported pest or weed control at 35 g/ha for the given compounds.
- System: ECHCG: barnyardgrass (Echinochloa crus-galli)
- test_description: Post-Emergent Test II herbicidal activity
- Type: in vivo
- test_context: post-emergence, 336 h, 35 g ai/ha, 14 days, read-out: Visual Growth Reduction (%) 14 Days After Application ECHCG
- From the text: Post-Emergent Test II: Seeds or nutlets of the desired test plant species were planted in Sun Gro Metro-Mix® 360 planting mixture, which typically has a pH of 6.0 to 6.8 and an organic matter content of about 30 percent, in plastic pots with a surface area of 64 square centimeters. When required to ensure good germination and healthy plants, a fungicide treatment and/or other chemical or physical treatment was applied. […]

Would you kindly share the measured pest or weed control at 35 g/ha for COC(=O)c1nc(-c2cc3nonc3cc2Cl)cc(N)c1Cl [Compound 8] ? 0 to 29%

Would you kindly share the measured pest or weed control at 35 g/ha for COC(=O)c1nc(-c2cc3nsnc3cc2F)cc(N)c1Cl [Compound 13] ? 75 to 84%

Would you kindly share the measured pest or weed control at 35 g/ha for COC(=O)c1nc(-c2cccc3nonc23)cc(N)c1Cl [Compound 16] ? 0 to 29%

Would you kindly share the measured pest or weed control at 35 g/ha for COc1cc2nonc2cc1-c1cc(N)c(Cl)c(C(=O)O)n1 [Compound 5] ? 0 to 29%

Would you kindly share the measured pest or weed control at 35 g/ha for COC(=O)c1nc(-c2cc3nonc3cc2F)nc(N)c1OC [Compound 10] ? 0 to 29%

Would you kindly share the measured pest or weed control at 35 g/ha for COC(=O)c1nc(-c2ccc3nonc3c2)c(F)c(N)c1Cl [Compound 1] ? 75 to 84%

Would you kindly share the measured pest or weed control at 35 g/ha for COC(=O)c1nc(-c2ccc3nonc3c2Cl)cc(N)c1Cl [Compound 18] ? 0 to 29%

Would you kindly share the measured pest or weed control at 35 g/ha for COC(=O)c1nc(-c2ccc3nsnc3c2F)cc(N)c1Cl [Compound 14] ? 0 to 29%

Would you kindly share the measured pest or weed control at 35 g/ha for COC(=O)c1nc(-c2cc3nonc3cc2F)cc(N)c1Cl [Compound 4] ? 85 to 94%

Would you kindly share the measured pest or weed control at 35 g/ha for COC(=O)c1nc(-c2ccc3nonc3c2C)cc(N)c1Cl [Compound 17] ? 0 to 29%

Would you kindly share the measured pest or weed control at 35 g/ha for Nc1c(F)c(-c2ccc3nsnc3c2)nc(C(=O)O)c1Cl [Compound 12] ? 75 to 84%

Would you kindly share the measured pest or weed control at 35 g/ha for COC(=O)c1nc(-c2cc3nonc3cc2F)c(F)c(N)c1Cl [Compound 3] ? 95 to 100%

Would you kindly share the measured pest or weed control at 35 g/ha for Nc1c(F)c(-c2ccc3nonc3c2)nc(C(=O)O)c1Cl [Compound 2] ? 60 to 74%

Would you kindly share the measured pest or weed control at 35 g/ha for COC(=O)c1nc(-c2ccc3nonc3c2OC)cc(N)c1Cl [Compound 9] ? 0 to 29%

Would you kindly share the measured pest or weed control at 35 g/ha for COC(=O)c1nc(-c2ccc3nsnc3c2)c(F)c(N)c1Cl [Compound 11] ? 85 to 94%

###

- Test system: CHEAL: lambsquarters (Chenopodium album)
- test_description: Post-Emergent Test II herbicidal activity
- Assay type: in vivo
- test_context: post-emergence, 336 h, 70 g ai/ha, 14 days, read-out: Visual Growth Reduction (%) 14 Days After Application CHEAL
- Excerpt: Post-Emergent Test II: Seeds or nutlets of the desired test plant species were planted in Sun Gro Metro-Mix® 360 planting mixture, which typically has a pH of 6.0 to 6.8 and an organic matter content of about 30 percent, in plastic pots with a surface area of 64 square centimeters. When required to ensure good germination and healthy plants, a fungicide treatment and/or other chemical or physical treatment was applied. […]
quantity_kind: pest or weed control at 70 g/ha

Would you kindly share the measured pest or weed control at 70 g/ha for COC(=O)c1nc(-c2ccc3nsnc3c2F)cc(N)c1Cl ? 60 to 74%

Would you kindly share the measured pest or weed control at 70 g/ha for COC(=O)c1nc(-c2cc3nonc3cc2F)nc(N)c1OC ? 0 to 29%

Would you kindly share the measured pest or weed control at 70 g/ha for COC(=O)c1nc(-c2ccc3nsnc3c2)c(F)c(N)c1Cl ? 95 to 100%

Would you kindly share the measured pest or weed control at 70 g/ha for Nc1c(F)c(-c2ccc3nsnc3c2)nc(C(=O)O)c1Cl ? 95 to 100%

Would you kindly share the measured pest or weed control at 70 g/ha for COC(=O)c1nc(-c2cc3nsnc3cc2F)cc(N)c1Cl ? 95 to 100%

Would you kindly share the measured pest or weed control at 70 g/ha for COC(=O)c1nc(-c2ccc3nonc3c2C)cc(N)c1Cl ? 95 to 100%

Would you kindly share the measured pest or weed control at 70 g/ha for COC(=O)c1nc(-c2ccc3nonc3c2OC)cc(N)c1Cl ? 60 to 74%

Would you kindly share the measured pest or weed control at 70 g/ha for COc1cc2nonc2cc1-c1cc(N)c(Cl)c(C(=O)O)n1 ? 0 to 29%

Would you kindly share the measured pest or weed control at 70 g/ha for Nc1c(F)c(-c2ccc3nonc3c2)nc(C(=O)O)c1Cl ? 95 to 100%

Would you kindly share the measured pest or weed control at 70 g/ha for COC(=O)c1nc(-c2ccc3nonc3c2Cl)cc(N)c1Cl ? 85 to 94%

Would you kindly share the measured pest or weed control at 70 g/ha for COC(=O)c1nc(-c2cc3nonc3cc2Cl)cc(N)c1Cl ? 0 to 29%

Would you kindly share the measured pest or weed control at 70 g/ha for COC(=O)c1nc(-c2cccc3nonc23)cc(N)c1Cl ? 75 to 84%

Would you kindly share the measured pest or weed control at 70 g/ha for COC(=O)c1nc(-c2cc3nonc3cc2F)c(F)c(N)c1Cl ? 85 to 94%

Would you kindly share the measured pest or weed control at 70 g/ha for COC(=O)c1nc(-c2ccc3nonc3c2)c(F)c(N)c1Cl ? 95 to 100%

Would you kindly share the measured pest or weed control at 70 g/ha for COC(=O)c1nc(-c2cc3nonc3cc2F)cc(N)c1Cl ? 95 to 100%
